Subject Of Test: T1, human EphA6 (Homo sapiens, UniProt Q9UF33)
T1 construct: a protein of the extracellular region of each human Eph receptor fused with the SEAP protein and the His tag; made in house; host or cells: Expi293F cells (culture supernatant)
T1 sequence (Q9UF33 23-550 limits assumed): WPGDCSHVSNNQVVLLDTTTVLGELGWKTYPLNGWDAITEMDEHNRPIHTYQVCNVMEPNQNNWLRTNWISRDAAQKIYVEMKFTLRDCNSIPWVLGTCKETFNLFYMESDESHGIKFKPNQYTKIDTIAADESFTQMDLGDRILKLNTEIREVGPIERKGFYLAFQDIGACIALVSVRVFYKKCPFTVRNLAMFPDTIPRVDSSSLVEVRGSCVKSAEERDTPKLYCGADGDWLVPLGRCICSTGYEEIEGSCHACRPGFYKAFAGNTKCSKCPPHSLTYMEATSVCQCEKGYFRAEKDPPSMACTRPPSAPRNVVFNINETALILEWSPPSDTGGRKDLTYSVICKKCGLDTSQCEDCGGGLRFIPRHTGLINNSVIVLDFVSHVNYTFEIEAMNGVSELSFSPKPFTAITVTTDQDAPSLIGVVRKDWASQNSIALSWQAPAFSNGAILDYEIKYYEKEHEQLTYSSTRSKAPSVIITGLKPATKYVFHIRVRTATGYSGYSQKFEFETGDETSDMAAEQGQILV
Test Description: Selectivity ELISA of humanized antibodies for human Eph receptor
Type: binding
Setup Conditions: coated protein 1 nM
From the text: According to the method described in Example 7, a DNA sequence encoding the signal sequence and the extracellular region of each human Eph receptor (EphA1, EphA2, EphA3, EphA4, EphA5, EphA6, EphA7, EphA8, EphA10, EphB1, EphB2, EphB3, EphB4, and EphB6) was amplified by RT-PCR using tissue-derived total RNA and cloned into a pENTR1A vector (Invitrogen/Life Technologies) having a DNA sequence encoding SEAP protein and histidine tag. […]
Measurement Label: hEphA6-SEAP-: absorbance at 450 nm, percentage with respect to hEphA4-SEAP-His as 100% (%)
Please state the figure in %; there is no need to write the unit.

Worked cases, answers included:
• 132 (antibody, V domains shown, synthetic humanized antibody heavy chain variable region sequence; synthetic humanized antibody light chain variable region sequence) VH: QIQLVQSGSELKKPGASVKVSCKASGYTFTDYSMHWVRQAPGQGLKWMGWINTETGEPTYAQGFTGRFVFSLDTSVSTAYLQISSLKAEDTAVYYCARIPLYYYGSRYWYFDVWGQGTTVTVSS VL: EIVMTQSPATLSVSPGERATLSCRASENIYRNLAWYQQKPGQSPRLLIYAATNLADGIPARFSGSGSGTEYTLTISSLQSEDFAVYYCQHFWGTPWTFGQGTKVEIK = 9.7
• 84 (antibody, V domains shown, constant regions without entry; synthetic humanized antibody light chain variable region sequence; synthetic humanized antibody heavy chain variable region sequence) VL: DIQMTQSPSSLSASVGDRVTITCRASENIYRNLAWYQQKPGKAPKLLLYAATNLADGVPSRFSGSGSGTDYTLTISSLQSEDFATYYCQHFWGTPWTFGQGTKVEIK VH: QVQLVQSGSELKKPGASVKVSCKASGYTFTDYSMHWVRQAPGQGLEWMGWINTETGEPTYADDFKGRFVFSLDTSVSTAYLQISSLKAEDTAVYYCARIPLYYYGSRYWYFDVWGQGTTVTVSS = 6.0
• 134 (antibody, V domains shown, synthetic humanized antibody heavy chain variable region sequence; synthetic humanized antibody light chain variable region sequence) VH: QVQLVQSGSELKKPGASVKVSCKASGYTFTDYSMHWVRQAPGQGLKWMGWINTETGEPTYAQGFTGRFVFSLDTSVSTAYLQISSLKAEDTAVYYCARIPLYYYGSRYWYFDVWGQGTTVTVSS VL: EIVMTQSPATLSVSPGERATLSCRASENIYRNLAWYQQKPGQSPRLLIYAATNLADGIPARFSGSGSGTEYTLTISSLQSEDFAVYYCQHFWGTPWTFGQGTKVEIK = 9.6

Here is the next item to consider.
The molecule identified as 88 (antibody, V domains shown, constant regions without entry; synthetic humanized antibody light chain variable region sequence; synthetic humanized antibody heavy chain variable region sequence) VL: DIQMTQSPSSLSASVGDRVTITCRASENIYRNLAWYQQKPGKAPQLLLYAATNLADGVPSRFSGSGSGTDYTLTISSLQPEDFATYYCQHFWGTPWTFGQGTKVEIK VH: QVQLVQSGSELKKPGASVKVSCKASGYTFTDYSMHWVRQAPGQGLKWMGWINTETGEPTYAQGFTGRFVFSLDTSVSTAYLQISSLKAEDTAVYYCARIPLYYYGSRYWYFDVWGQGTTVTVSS registered its hEphA6-SEAP-: absorbance at 450 nm, percentage with respect to hEphA4-SEAP-His as 100% at 7.5

All values here come from patent US10428140B2.
